target-system: Kappa-type opioid receptor (Cavia porcellus, UniProt P41144)
Sequence (P41144 whole entry): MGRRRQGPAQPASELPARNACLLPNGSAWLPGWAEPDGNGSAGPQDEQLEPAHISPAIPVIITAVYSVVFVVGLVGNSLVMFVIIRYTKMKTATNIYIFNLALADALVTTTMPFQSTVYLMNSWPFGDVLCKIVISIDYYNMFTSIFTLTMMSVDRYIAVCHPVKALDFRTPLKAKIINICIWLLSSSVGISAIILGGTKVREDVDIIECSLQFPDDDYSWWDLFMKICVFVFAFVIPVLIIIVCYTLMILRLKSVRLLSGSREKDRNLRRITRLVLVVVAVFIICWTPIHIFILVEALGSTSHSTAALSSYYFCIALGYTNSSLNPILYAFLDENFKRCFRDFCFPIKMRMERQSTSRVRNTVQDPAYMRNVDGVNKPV
assay: In vito concentration required to displace [3H]BRM (Kd = 1.0 nM and concentration is 1.8 nM) from opioid receptor kappa 2 in guinea brain membranes.
Format: cell membranes
measured-attribute: IC50

Worked cases, answers included:
>>> observed("Oc1ccc2c3c1O[C@H]1[C@@H](I)CC[C@@]4(O)[C@@H](C2)N(CC2CC2)CC[C@]314")
"23.7 nM"
>>> observed("Oc1ccc2c3c1O[C@H]1[C@@H](Br)CC[C@@]4(O)[C@@H](C2)N(CC2CC2)CC[C@]314")
"20.2 nM"
>>> observed("Oc1ccc2c3c1O[C@H]1[C@H](F)CC[C@@]4(O)[C@@H](C2)N(CC2CC2)CC[C@]314")
"66 nM"

--- query ---
Entry Oc1ccc2c3c1O[C@H]1[C@H](I)CC[C@@]4(O)[C@@H](C2)N(CC2CC2)CC[C@]314 , tested on Kappa-type opioid receptor (Cavia porcellus, UniProt P41144), has a reported IC50 of 7.65 nM
